test system: M19-MEL melanoma; assay: NCI tumour cell line growth inhibition, 48 h
Where a SMILES comes first, the peptide text is derived from it.
Quick reference: TGI of the listed items.
Measured property: TGI

1) CSc1nc(NC2OC(COC(C)=O)C(OC(C)=O)C(OC(C)=O)C2OC(C)=O)c(-c2csc(N)n2)c(=O)n1C (centres undefined)    > 100 µM
2) COc1ccc(/C(Cl)=C(\c2ccc(OCCN(C)C)cc2)c2ccc(OC(=O)C(C)(C)C)cc2)cc1    26.6 µM
3) O=c1c(NO)c([N+](=O)[O-])cnn1-c1ccccc1    12.2 µM
4) O=S1(=O)CCCS(=O)(=O)C(c2ccccc2)=C1c1ccccc1    > 100 µM
5) CCC(C)C1NC(=O)C2CCCN2C(=O)CNC(=O)C(C)NC(=O)C(Cc2ccccc2)NC(=O)C(C(C)C)NC1=O (centres undefined) (cyclo(GPIVFA); configuration not given here)    > 100 µM
6) Cc1cccc(N2C(=O)C(=O)C(c3nc4ccccc4s3)/C(=N/NC(=S)NN)C2=O)c1C (centres undefined)    > 100 µM
7) COc1ccc2c(c1)[n+]([O-])c(-c1ccc(C)cc1)c(N)[n+]2[O-]    > 100 µM
8) O=S(=O)(c1ccccc1)n1cc(C[P+](c2ccccc2)(c2ccccc2)c2ccccc2)c2ccccc21    15.9 µM
9) NCCCCC(=O)c1cccnc1    > 100 µM
